# Test system: CCRIS mutagenicity, Ames/micronucleus/aberration tests
# protocol: CCRIS mutagenicity studies
# test.context: Test System: AMES SALMONELLA TYPHIMURIUM; Strain/Indicator: TA100; Metabolic Activation: NONE; Method: PREINCUBATION
The source made the active and inactive calls. No rule for the calls is given here.
Give one outcome, nothing more. List: active, inactive

Study these solved cases before continuing.
compound=CC1=CC(=O)C=C2CC[C@@H]3[C@H](CC[C@]4(C)C(=O)CC[C@@H]34)[C@@]12C label_class=inactive
compound=N#Cc1cc([N+](=O)[O-])ccc1N label_class=active
compound=O.O.O.O.O.O.[Cl-].[Cl-].[Ni+2] label_class=inactive
compound=CSC[C@H](N)C(=O)O label_class=inactive
compound=CCc1cccc(CC)c1NC(=O)CO label_class=inactive
compound=O=[N+]([O-])c1cc(Cl)c(Cl)c(Cl)c1Cl label_class=inactive
compound=CCCCCCCCCCCCCCCCCC(N)=O label_class=inactive
compound=CC(=O)C(C)=O label_class=inactive

Just curious, what result did CC(N)CCN (stereo not given) get here?
inactive

Which result was noted for this compound in the test: CSc1ccc([N+](=O)[O-])cc1[N+](=O)[O-]
active

I'd appreciate the recorded outcome for O=C1Nc2ccc(Cl)cc2C(c2ccccc2)=NC1O (stereo not given) from this test.
inactive

Which outcome was entered for the compound Nc1ccc([As](=O)(O)O)cc1 in this test?
inactive

Hello, I am checking results. What call was entered for C[Si](C)(C)Cl ?
inactive

So what was the verdict on C=C(C)C(=O)OCC(Br)CBr (stereo not given) in this test?
inactive

Record request — test call for CC/C=C/C#N
inactive

Any idea what this test logged for COP(=S)(OC)Oc1ccc([N+](=O)[O-])c(C)c1 ?
inactive

// outcome(item) with item = COc1ccc(C(=O)c2ccccc2)c(O)c1
inactive

GET /call?item= Cc1ccc(CO)cc1 returns the recorded outcome of this test.
inactive

---

# System: CCRIS mutagenicity, Ames/micronucleus/aberration tests
# protocol: CCRIS mutagenicity studies
# test.context: Test System: AMES SALMONELLA TYPHIMURIUM; Strain/Indicator: TA100; Metabolic Activation: NONE; Method: STANDARD PLATE
The source made the active and inactive calls. No rule for the calls is given here.
Field 'call' accepts active, inactive

Past entries and their recorded results:
compound=O=[N+]([O-])c1c(Cl)cc2c(c1Cl)Oc1cc(Cl)c(Cl)cc1O2 assay_system="CCRIS mutagenicity, Ames/micronucleus/aberration tests" label_class=inactive
compound=O=[N+]([O-])c1ccc2c(c1)nc(/C=N/OCc1ccccc1[N+](=O)[O-])n2Cc1ccccc1 assay_system="CCRIS mutagenicity, Ames/micronucleus/aberration tests" label_class=active
compound="c1ccc(CN2C3c4ccccc4-c4ccccc4C32)cc1 (stereo not drawn)" assay_system="CCRIS mutagenicity, Ames/micronucleus/aberration tests" label_class=active
compound=Oc1ccc2ncccc2c1 assay_system="CCRIS mutagenicity, Ames/micronucleus/aberration tests" label_class=inactive
compound=COc1c(N)cc(C)c(N)c1C assay_system="CCRIS mutagenicity, Ames/micronucleus/aberration tests" label_class=inactive

What outcome does the record of this test show for BrCc1ccc(Br)cc1 ?
inactive

Write down the call the test reported for this compound. Item: Cc1cc(C)c(CN2C3c4ccccc4-c4ccccc4C32)c(C)c1 (stereo not drawn)
active

// return assay outcome for O=C1OC(=C(Cl)Cl)C=C1Cl
active

Tell me the recorded outcome of this test for CC(Br)(CO)CBr (stereo not drawn) .
inactive

Given C=CCc1ccc(OC)cc1 , state the outcome it received in this test.
inactive

Please state the recorded outcome for this compound: OCl
inactive

Assay result, entry CC(=O)O[C@]1(C(C)=O)CC[C@H]2[C@@H]3C[C@H](C)C4=CC(=O)CC[C@]4(C)[C@H]3CC[C@@]21C — outcome?
inactive

Hello, I am checking results. What call was entered for CCOC1=CC(=O)C(NC(C)=O)=CC1=O ?
active
